Provenance of the data: PubChem BioAssay (NCI)

Test system: SW-620 colon
measurement_notes: NCI tumour cell line growth inhibition, 48 h
Listing of recorded TGI by entry.

The following molecules have reported results that may help.
[
  {
    "molecule": "O=NNc1ccc(Sc2ccc(NN=O)cn2)nc1",
    "recorded_result": "> 100 µM"
  },
  {
    "molecule": "O=C1c2c(ccc3c2CCC3)CC12Cc1ccccc1C2",
    "recorded_result": "93.7 µM"
  },
  {
    "molecule": "CCNC12CCC(C1)C(C)(C)C2=O (stereo not given)",
    "recorded_result": "> 100 µM"
  }
]

Which TGI value is on record for `O=C1c2ccccc2-c2c1c1c(O)cccc1n2Cc1ccccn1` ?
> 100 µM

GET /values?readout=TGI&item= C=C(CO)[C@@H]1CC[C@]2(COC3CCCCO3)CC[C@]3(C)[C@H](CC[C@@H]4[C@@]5(C)C=C(C=O)C(=O)C(C)(C)[C@@H]5CC[C@]43C)[C@@H]12 (stereo not given in full)
0.832 µM

Entry `O=C1C=CC(=O)N1c1cccc(N2C(=O)C=CC2=O)c1` has what TGI?
3.87 µM

Fill in: TGI of O=C(c1ccccc1)C1C(c2ccccc2)N1S(=O)(=O)c1ccccc1 (stereo not given) is ___
> 100 µM

Recorded TGI of COC(=O)C1Cc2ccc3c(c2C1=O)CCCC3 (stereo not given) , please.
> 100 µM

Find the recorded TGI belonging to `Cc1cc(-c2ccccn2)cc(C)c1/C=C/c1cncc(-c2nn[nH]n2)c1` and report it.
> 25 µM

Given the entry CCOC(OCC)N1C(=O)C2(C(OCC)OCC)CC3C(OC(=O)N3N)c3cccc1c32 (stereo not given) , report its measured TGI.
> 100 µM

----------
Test system: UO-31 renal
measurement_notes: NCI tumour cell line growth inhibition, 48 h
Below, each entry is listed with its recorded TGI.

Some solved entries appear below for comparison.
[
  {
    "compound": "CSc1snc2sc3c(Cl)nnnc3c12",
    "TGI": "25.6 µM"
  },
  {
    "compound": "C=C(C(=C)N1N=NC2C3CCC(C3)C21)N1N=NC2C3CCC(C3)C21 (stereo not given)",
    "TGI": "> 100 µM"
  },
  {
    "compound": "CC(C)C[C@H](NC(=O)[C@H](Cc1ccc(F)cc1)NC(=O)c1ccccn1)B(O)O",
    "TGI": "< 0.01 µM"
  },
  {
    "compound": "COC(=O)C1=C(C)NC(C)=C(C(=O)OC)C1c1ccc(N=O)cc1",
    "TGI": "26.3 µM"
  }
]

Entry `CCC(=O)Nc1ccc(C)c(-c2ccc(C(=O)NCC3CC3)cc2)c1` , system UO-31 renal: what TGI was measured?
> 25 µM

API: value(readout= TGI, system= UO-31 renal, query= `ON[C@H]1C[C@@H](n2cnc3c(NC4CC4)ncnc32)[C@H](O)[C@@H]1O` )
> 100 µM

----------
Test system: A549 NSCLC
measurement_notes: NCI tumour cell line growth inhibition, 48 h; in the data active = GI50 below about 0.43 µM; inactive = the rest
Entry note: the call must match one of t (active), f (inactive)

Illustrative cases are given below, each with its answer.
[
  {
    "molecule": "O=C1c2ccccc2-c2c1c1c(O)cccc1n2Cc1ccccn1",
    "target_of_assay": "A549 NSCLC",
    "class_name": "f"
  },
  {
    "molecule": "CCC(=O)Nc1ccc(C)c(-c2ccc(C(=O)NCC3CC3)cc2)c1",
    "target_of_assay": "A549 NSCLC",
    "class_name": "f"
  },
  {
    "molecule": "O=C1C=CC(=O)N1c1cccc(N2C(=O)C=CC2=O)c1",
    "target_of_assay": "A549 NSCLC",
    "class_name": "f"
  },
  {
    "molecule": "CCc1ccc(C(=Nc2ccc(N(C)C(=O)CN3CCN(C)CC3)cc2)c2c(O)[nH]c3ccc(C(=O)OC)cc23)cc1",
    "target_of_assay": "A549 NSCLC",
    "class_name": "t"
  },
  {
    "molecule": "O=C(/C=C/C12c3ccccc3C(c3ccccc31)C1C(=O)NC(=O)C12)c1ccc(F)cc1 (stereo not given)",
    "target_of_assay": "A549 NSCLC",
    "class_name": "f"
  }
]

Recorded test outcome, item CC(CN(C)C)Oc1ccccc1NC1=C(Cl)C(=O)C(Nc2ccccc2OC(C)CN(C)C)=C(Cl)C1=O (stereo not given)
f

Please share the test call associated with `CCOC(=O)c1cc(-c2ccccc2)[nH]c1N/N=C/c1ccc(Cl)cc1` .
f

Hello, I am checking results. What call was entered for `CN1CCN(c2ccc(NC(=O)c3cncnc3Nc3ccc(OCc4ccccn4)c(Cl)c3)cc2)CC1` ?
f

// return assay outcome for `C/C(O)=C(\C#N)C(=O)Nc1ccc(C(F)(F)F)cc1`
f

Field: outcome | Entry: `CCCN(CCC)c1ccc(/C=N/NC(=O)c2cccnc2)c(OC)c1`
f
